Recorded Activity for the following molecules
# Species on record: Homo sapiens
# test.description: Inhibition of hexahistidine-tagged tau K18 domain C291S/C322S mutant (unknown origin) expressed in Escherichia coli BL21 (DE3) assessed as inhibition of heparin-induced aggregation by measuring protein aggregation rate at 10 uM by thioflavin-T fluorescence assay relative to control
# Set-up: scale not given: the % may be the effect or the level left
Write the number in % without appending the unit.

molecule	Activity (%)
C=CS(=O)(=O)Cc1cc(C(F)(F)F)cc(C(F)(F)F)c1	86.7
C=CS(=O)(=O)Cc1c2ccccc2cc2ccccc12	69.4
C=CS(=O)(=O)Cc1ccc(-c2ccc(/C=C3/SC(=S)N(CCC(=O)OCC)C3=O)o2)cc1	83.4
C=CS(=O)(=O)Nc1ccc(C(=O)NCCCCCC(=O)N[C@@H](CCC(=O)O)C(=O)N[C@@H](C)C(=O)N[C@@H](C)C(=O)N[C@@H](CCC(=O)O)C(=O)N[C@@H](C)C(=O)N[C@@H](CCCCN)C(=O)N[C@@H](C)C(=O)N[C@@H](C)C(=O)NC(CCCCn2cc(CNC(=O)[C@H](Cc3c[nH]c4ccccc34)NC3C(=O)c4ccccc4C(=O)C3Cl)nn2)C(=O)O)cc1 (stereo not given in full)	57.9

Moving on to another molecule below.
Exercise: I am curious: what Activity value has been reported for "C=CS(=O)(=O)NCCNC(=O)O[C@H]1CC[C@@]2(C)C(=CC[C@H]3[C@@H]4CC[C@H]([C@H](C)CCCC(C)C)[C@@]4(C)CC[C@@H]32)C1" ?
Solution: 100
